- assayProcedure: Inhibition of ENO1 in wild-type human LN319 cells incubated for 5 days in presence of 1 % oxygen by crystal violet staining based spectrophotometry
So I've got a bunch of molecules here, and I need their IC50 values.
One number for each entry, in nM.

molecule	measured
CC(C)(C)C(=O)OCOP(=O)(OCOC(=O)C(C)(C)C)C1CCCN(O)C1=O (configuration not stated)	1810

As a next step, examine the molecule that follows.
*Q* Reported IC50 for Cn1c(COP(=O)(NCCBr)NCCBr)cnc1[N+](=O)[O-] [Evofosfamide] : what is it?
*A* 897

====

- assayProcedure: Inhibition of ENO1 in overexpressed human D423 cells incubated for 5 days in presence of 21 % oxygen by crystal violet staining based spectrophotometry
recordedEndpoint: pIC50
Answers are plain numbers, as −log10 of the molar value.

Please review the entries below; each comes with its answer.
molecule	pIC50
Cn1c(COP(=O)(NCCBr)NCCBr)cnc1[N+](=O)[O-] [Evofosfamide]	5.59
CC(C)(C)C(=O)OCOP(=O)(OCOC(=O)C(C)(C)C)C1CCCN(O)C1=O (stereo not drawn)	6.14

*Q* Reported pIC50 for CC(=O)ON1CCCC(P(=O)(NCc2ccccc2)OCc2ccc([N+](=O)[O-])o2)C1=O (stereo not drawn) : what is it?
*A* 4.59

====

- assayProcedure: Inhibition of ENO1 in wild-type human LN319 cells incubated for 5 days in presence of 21 % oxygen by crystal violet staining based spectrophotometry
So I've got a bunch of compounds here, and I need their IC50 values.
One number for each entry, in µM.

Please review the entries below; each comes with its answer.
compound	IC50 [µM]
CC(C)(C)C(=O)OCOP(=O)(OCOC(=O)C(C)(C)C)C1CCCN(O)C1=O (stereo not drawn)	2.41
Cn1c(COP(=O)(NCCBr)NCCBr)cnc1[N+](=O)[O-] [Evofosfamide]	4.84

As a next step, examine the compound that follows.
*Q* Reported IC50 for CC(=O)ON1CCCC(P(=O)(NCc2ccccc2)OCc2ccc([N+](=O)[O-])o2)C1=O (stereo not drawn) : what is it?
*A* 21.1

====

So I've got a bunch of compounds here, and I need their pIC50 values.
- assayProcedure: Inhibition of ENO1 in overexpressed human D423 cells incubated for 5 days in presence of 1 % oxygen by crystal violet staining based spectrophotometry
Numbers only, as −log10 of the molar value.

compound	measured
CC(C)(C)C(=O)OCOP(=O)(OCOC(=O)C(C)(C)C)C1CCCN(O)C1=O (stereo not drawn)	5.55

Take each entry in turn and give its pIC50.
1. CC(=O)ON1CCCC(P(=O)(NCc2ccccc2)OCc2ccc([N+](=O)[O-])o2)C1=O (stereo not drawn)
2. Cn1c(COP(=O)(NCCBr)NCCBr)cnc1[N+](=O)[O-] [Evofosfamide]

*A*
[5.24, 6.52]

====

- assayProcedure: Inhibition of ENO1 in wild-type human LN319 cells incubated for 5 days by crystal violet staining based spectrophotometry
recordedEndpoint: pIC50
One number for each entry, as −log10 of the molar value.

compound	measured
CC(C)(C)C(=O)OCOP(=O)(NCc1ccccc1)C1CCCN(O)C1=O (stereo not drawn)	5.40

*Q* Reported pIC50 for CC(C)(C)C(=O)OCOP(=O)(OCOC(=O)C(C)(C)C)C1CCCN(O)C1=O (stereo not drawn) : what is it?
*A* 5.67
